Target: IL-2Rγc subunit (Homo sapiens, UniProt P31785)
Construct: Fc; purchased ACRObiosystems, Inc. ILG-H5256
Sequence (P31785 23-254): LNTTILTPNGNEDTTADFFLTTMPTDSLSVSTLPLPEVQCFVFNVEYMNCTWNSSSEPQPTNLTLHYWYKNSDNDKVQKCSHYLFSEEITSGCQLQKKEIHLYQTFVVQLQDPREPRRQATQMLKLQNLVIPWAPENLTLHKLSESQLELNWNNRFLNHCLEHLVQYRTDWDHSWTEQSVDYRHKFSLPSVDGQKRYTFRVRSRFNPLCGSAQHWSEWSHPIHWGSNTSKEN
Test: competitive binding of synthetic peptides against phage clones on IL-2Rγc
Details: phage family 2
property: competition with phage clone peptide SEQ ID NO 236

[
  {
    "substance": "58 (YDCRIAQVGELCDL) [Peptide 58]",
    "reading": "−"
  },
  {
    "substance": "948 (SLLKCYNASTCASVF) [Peptide 948]",
    "reading": "−"
  }
]

###

Target: extracellular domain (ECD) of IL-2Rβ (Homo sapiens)
Construct: Fc; purchased ACRObiosystems, Inc. ILB-H5253
Sequence (P14784 27-239): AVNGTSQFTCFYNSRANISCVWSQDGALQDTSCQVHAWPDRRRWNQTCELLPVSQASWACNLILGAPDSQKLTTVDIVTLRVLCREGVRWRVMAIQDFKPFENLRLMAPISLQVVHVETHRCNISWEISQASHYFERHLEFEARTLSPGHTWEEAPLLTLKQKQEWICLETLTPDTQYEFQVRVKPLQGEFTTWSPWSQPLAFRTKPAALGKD
Assay: competitive binding of synthetic peptides against phage clones on IL-2Rβ
Conditions: phage family 2B
property: competition with phage clone peptide SEQ ID NO: 83

[
  {
    "substance": "1044 (RSCYYKRPRLWCSE) [Peptide 1044]",
    "tgt": "extracellular domain (ECD) of IL-2Rβ (Homo sapiens)",
    "reading": "−"
  },
  {
    "substance": "224 (DCSMWEGVELCW) [Peptide 224]",
    "tgt": "extracellular domain (ECD) of IL-2Rβ (Homo sapiens)",
    "reading": "−"
  }
]
